- Procedure Text: in vivo
- Measurement Parameters: rat, iv, 0.2 mg/kg
Property Name: Vd (L/kg)
Give the value in L/kg but do not write L/kg after it.

Entry COC1CN(C(=O)c2ccc3c(N)ncc(-c4ccc(-c5cnn(C)c5)cc4)c3n2)C1 needs its Vd filled in; supply it.
2.13

----------
- Test system: Caco-2
- Measurement Parameters: human
Let's look at some compounds and their measured Caco-2 ER.
Enter a number only.

Completed entries (count: 7):
>>> observed("Cn1cc(-c2ccc(-c3cnc(N)c4ccc(C(=O)N5CCC5)nc34)cc2)cn1")
5.3
>>> observed("Cn1cc(-c2ccc(-c3cnc(N)c4ccc(C(=O)N5CCC5)cc34)cc2)cn1")
5.5
>>> observed("Cn1cc(-c2ccc(-c3cnc(N)c4ccc(C(=O)N5CC(C)(F)C5)cc34)cc2)cn1")
3.4
>>> observed("Cn1cc(-c2ccc(-c3cnc(N)c4ccc(C(=O)N5CC(F)(F)C5)nc34)cc2)cn1")
1.8
>>> observed("Cn1cc(-c2ccc(-c3cnc(N)c4ccc(C(=O)N5CCCC5)nc34)cc2)cn1")
5.0
>>> observed("Cn1cc(-c2ccc(-c3cnc(N)c4ccc(C(=O)N5CC(C)(F)C5)nc34)cc2)cn1")
3.4
>>> observed("COC1(C)CN(C(=O)c2ccc3c(N)ncc(-c4ccc(-c5cnn(C)c5)cc4)c3n2)C1")
5.8

Let us examine a further case.
Kindly indicate its recorded Caco-2 ER. Item: COC1CN(C(=O)c2ccc3c(N)ncc(-c4ccc(-c5cnn(C)c5)cc4)c3n2)C1
5.9

----------
- Test System: aldehyde oxidase (Homo sapiens, UniProt Q06278)
- Sequence (Q06278 whole entry): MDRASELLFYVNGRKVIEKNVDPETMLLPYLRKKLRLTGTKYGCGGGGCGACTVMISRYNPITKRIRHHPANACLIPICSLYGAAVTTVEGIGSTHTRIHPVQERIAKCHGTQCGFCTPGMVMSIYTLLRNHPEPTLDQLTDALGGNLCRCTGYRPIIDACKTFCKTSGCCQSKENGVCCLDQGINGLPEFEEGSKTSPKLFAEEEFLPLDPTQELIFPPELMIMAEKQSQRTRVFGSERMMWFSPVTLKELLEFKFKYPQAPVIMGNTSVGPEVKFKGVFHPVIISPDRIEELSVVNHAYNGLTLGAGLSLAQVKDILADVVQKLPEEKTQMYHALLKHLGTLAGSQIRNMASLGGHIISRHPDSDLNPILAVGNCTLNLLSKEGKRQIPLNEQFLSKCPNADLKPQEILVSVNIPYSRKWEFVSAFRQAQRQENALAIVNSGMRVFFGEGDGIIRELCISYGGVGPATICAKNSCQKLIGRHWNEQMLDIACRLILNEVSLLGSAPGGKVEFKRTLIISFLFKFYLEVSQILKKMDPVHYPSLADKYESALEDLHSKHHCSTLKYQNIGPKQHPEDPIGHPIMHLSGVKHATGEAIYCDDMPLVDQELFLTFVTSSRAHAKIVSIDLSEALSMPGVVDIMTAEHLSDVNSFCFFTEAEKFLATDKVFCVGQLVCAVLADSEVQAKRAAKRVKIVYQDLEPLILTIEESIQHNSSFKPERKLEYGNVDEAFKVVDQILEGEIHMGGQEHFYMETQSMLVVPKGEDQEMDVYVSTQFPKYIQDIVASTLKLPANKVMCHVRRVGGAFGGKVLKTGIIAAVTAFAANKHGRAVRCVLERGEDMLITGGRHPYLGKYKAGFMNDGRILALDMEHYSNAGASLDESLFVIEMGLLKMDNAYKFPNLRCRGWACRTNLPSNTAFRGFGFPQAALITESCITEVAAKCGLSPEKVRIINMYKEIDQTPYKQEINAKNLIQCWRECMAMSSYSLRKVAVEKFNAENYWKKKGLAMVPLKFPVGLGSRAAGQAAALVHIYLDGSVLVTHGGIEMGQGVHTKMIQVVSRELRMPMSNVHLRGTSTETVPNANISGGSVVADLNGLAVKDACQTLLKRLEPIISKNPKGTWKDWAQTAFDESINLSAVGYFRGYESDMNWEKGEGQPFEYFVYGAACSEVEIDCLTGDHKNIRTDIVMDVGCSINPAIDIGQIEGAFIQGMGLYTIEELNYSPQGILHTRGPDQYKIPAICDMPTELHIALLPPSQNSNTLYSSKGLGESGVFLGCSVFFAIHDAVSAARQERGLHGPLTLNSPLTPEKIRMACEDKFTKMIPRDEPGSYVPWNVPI
- Procedure Text: in vitro
- Measurement Parameters: cytosol
Property Name: CLint scaled at 1 µM (mL/min/kg)
Write down the numeric answer in mL/min/kg and omit the unit.

>>> observed("CNC(=O)c1ccc2cncc(-c3ccc4c(c3)CS(=O)(=O)N4C)c2n1")
598
>>> observed("CNC(=O)c1ccc2c(N)ncc(-c3ccc4c(c3)CS(=O)(=O)N4C)c2n1")
15
>>> observed("Cn1cc(-c2ccc(-c3cncc4ccc(N5CCCC5=O)nc34)cc2)cn1")
418

# evaluate next
Please tell me the measured CLint scaled at 1 µM for Cn1cc(-c2ccc(-c3cncc4ccc(-c5ncco5)nc34)cc2)cn1 ; system: aldehyde oxidase (Homo sapiens, UniProt Q06278).
367

----------
- System: Caco-2
- Measurement Parameters: human
Property Name: Caco-2 PappA-B

>>> observed("Cn1cc(-c2ccc(-c3cnc(N)c4ccc(C(=O)N5CC(C)(F)C5)cc34)cc2)cn1")
"25.8 × 10^–6 cm/s"
>>> observed("COC1(C)CN(C(=O)c2ccc3c(N)ncc(-c4ccc(-c5cnn(C)c5)cc4)c3c2)C1")
"25.2 × 10^–6 cm/s"
>>> observed("COC1CN(C(=O)c2ccc3c(N)ncc(-c4ccc(-c5cnn(C)c5)cc4)c3n2)C1")
"28.6 × 10^–6 cm/s"

Report Caco-2 PappA-B for COC1(C)CN(C(=O)c2ccc3c(N)ncc(-c4ccc(-c5cnn(C)c5)cc4)c3n2)C1
40.1 × 10^–6 cm/s

Supply reported Caco-2 PappA-B belonging to this compound: Cn1cc(-c2ccc(-c3cnc(N)c4ccc(C(=O)N5CCC5)nc34)cc2)cn1
42.6 × 10^–6 cm/s

Consider the compound Cn1cc(-c2ccc(-c3cnc(N)c4ccc(C(=O)N5CCOCC5)nc34)cc2)cn1 . State its measured Caco-2 PappA-B.
34.0 × 10^–6 cm/s

Specify Caco-2 PappA-B for Cn1cc(-c2ccc(-c3cnc(N)c4ccc(N5CCOC5=O)cc34)cc2)cn1 and stop.
20.6 × 10^–6 cm/s

Return the recorded Caco-2 PappA-B value; entry: Cn1cc(-c2ccc(-c3cnc(N)c4ccc(C(=O)N5CCNCC5)nc34)cc2)cn1
0.96 × 10^–6 cm/s

Supply measured Caco-2 PappA-B of Cn1cc(-c2ccc(-c3cnc(N)c4ccc(C(=O)N5CC(C)(F)C5)nc34)cc2)cn1 in your reply.
27.6 × 10^–6 cm/s

Respond only with Caco-2 PappA-B recorded for Cn1cc(-c2ccc(-c3cnc(N)c4ccc(C(=O)N5CCCC5)nc34)cc2)cn1
30 × 10^–6 cm/s

Please look at this compound and report its Caco-2 PappA-B: Cn1cc(-c2ccc(-c3cnc(N)c4ccc(C(=O)N5CC(F)(F)C5)nc34)cc2)cn1
23.9 × 10^–6 cm/s
